Tested on: Liv7k cell line (oral cancer)
Test: Drug repurposing screen: growth inhibition of oral cancer cell line under normoxia and hypoxia (nuclei count)
Format: cell-based
Conditions: Homo sapiens; normoxia
pIC50: −log10 of the molar value.
Experimental Endpoint: pIC50

>  <Compound Structure String>
CN(C/C=C/C#CC(C)(C)C)Cc1cccc2ccccc12

>  <Result>
5.24

$$$$
